- TESTED_ON: GST-TMEM106B (truncated, comprising amino acids 122-210 of SEQ ID NO:1) (Homo sapiens, UniProt Q9NUM4)
- Sequence (Q9NUM4 122-210): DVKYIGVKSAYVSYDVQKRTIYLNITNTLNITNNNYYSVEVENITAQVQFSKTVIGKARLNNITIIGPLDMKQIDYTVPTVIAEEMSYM
- TEST: Pre-mix epitope binning of anti-TMEM106B antibodies (Carterra / Lake Pharma)
- Type: binding
- TEST_CONDITIONS: epitope bin number; pre-mix binning on truncated GST-TMEM106B
OBSERVABLE: Binding Community/Bin

MOLECULE	RESULT
TM-11: anti-TMEM106B monoclonal antibody; CDR-H1-3 SEQ ID NO: 12, 45, 88; CDR-L1-3 SEQ ID NO: 129, 170, 193 (antibody, V domains shown) VH: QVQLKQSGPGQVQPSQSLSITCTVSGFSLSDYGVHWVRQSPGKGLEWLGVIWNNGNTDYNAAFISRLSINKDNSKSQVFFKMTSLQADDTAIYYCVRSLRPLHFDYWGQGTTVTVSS VL: DIVMTQSPSSLTMSVGQKVTMHCKSSQSLLNSNNLQNYLAWYQQKPGQSPTLLVYFASIRESGVPDRFIGSGSGTDFTLTISSVQAEDLADYFCQQHYNTPFTFGSGTKLEIR	2
TM-21: anti-TMEM106B monoclonal antibody; CDR-H1-3 SEQ ID NO: 18, 54, 97; CDR-L1-3 SEQ ID NO: 137, 168, 201 (antibody, V domains shown) VH: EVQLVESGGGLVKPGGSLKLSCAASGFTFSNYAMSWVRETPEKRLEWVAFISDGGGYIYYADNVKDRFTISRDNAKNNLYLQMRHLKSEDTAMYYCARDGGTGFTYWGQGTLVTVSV VL: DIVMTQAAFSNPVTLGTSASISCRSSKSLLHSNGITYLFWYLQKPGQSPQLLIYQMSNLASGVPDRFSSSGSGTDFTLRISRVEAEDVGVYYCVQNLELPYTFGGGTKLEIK	2
TM-1: anti-TMEM106B monoclonal antibody; CDR-H1-3 SEQ ID NO: 2, 35, 78; CDR-L1-3 SEQ ID NO: 120, 160, 184 (antibody, V domains shown) VH: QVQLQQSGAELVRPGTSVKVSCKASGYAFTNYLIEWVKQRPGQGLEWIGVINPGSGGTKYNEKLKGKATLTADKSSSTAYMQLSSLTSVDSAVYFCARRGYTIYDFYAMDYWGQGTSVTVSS VL: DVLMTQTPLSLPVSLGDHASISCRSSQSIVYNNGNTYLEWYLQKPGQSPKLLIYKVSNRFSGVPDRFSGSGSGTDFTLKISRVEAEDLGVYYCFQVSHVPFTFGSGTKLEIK	1

Reported Binding Community/Bin for TM-28: anti-TMEM106B monoclonal antibody; CDR-H1-3 SEQ ID NO: 8, 59, 102; CDR-L1-3 SEQ ID NO: 142, 166, 190 (antibody, V domains shown) VH: EVQLQQSGPVLVKPGPSVKISCMASVFTFNDYYIHWVKQSHGKSLEWIGLVYPYNGGTNYNQNFKGKATLTVDTSSRTAYMELNSLTSEDSAVYYCARSYFSNPIGYWGQGTLVTVSE VL: DIVMTQSPSSLSVSVGEKVTVSCKSSQSLLNSGNQKNYLAWYQQKPGQPPKLLIYGASTRESGVPDRFTGSGSGTDFTLTISSVQAEDLAVYYCQNDHSYPLTFGAGTKLELK : what is it? 4
